- assayedSystem: hCA I (Homo sapiens, UniProt P00915)
- Construct: made in house
- Sequence (P00915 whole entry): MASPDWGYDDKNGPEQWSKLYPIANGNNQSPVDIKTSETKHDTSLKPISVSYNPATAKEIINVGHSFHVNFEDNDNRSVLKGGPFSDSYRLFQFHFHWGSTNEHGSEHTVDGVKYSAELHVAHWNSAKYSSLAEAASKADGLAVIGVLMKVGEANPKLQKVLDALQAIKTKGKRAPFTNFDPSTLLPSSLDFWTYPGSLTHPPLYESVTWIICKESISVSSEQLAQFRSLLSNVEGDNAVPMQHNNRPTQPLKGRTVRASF
- measurementProtocol: stopped-flow CO2 hydrase assay, hCA I
- Assay type: biochemical
- appliedConditions: mean from three assays by stopped flow technique, errors ± 5–10%; read-out: Ki hCA I
observationType: Ki (nM)

NCCCNC(=O)c1ncc(-c2ccc(S(N)(=O)=O)s2)o1	58.3

----------
- assayedSystem: hCA XII (Homo sapiens, UniProt O43570)
- Construct: made in house
- Sequence (O43570 25-354): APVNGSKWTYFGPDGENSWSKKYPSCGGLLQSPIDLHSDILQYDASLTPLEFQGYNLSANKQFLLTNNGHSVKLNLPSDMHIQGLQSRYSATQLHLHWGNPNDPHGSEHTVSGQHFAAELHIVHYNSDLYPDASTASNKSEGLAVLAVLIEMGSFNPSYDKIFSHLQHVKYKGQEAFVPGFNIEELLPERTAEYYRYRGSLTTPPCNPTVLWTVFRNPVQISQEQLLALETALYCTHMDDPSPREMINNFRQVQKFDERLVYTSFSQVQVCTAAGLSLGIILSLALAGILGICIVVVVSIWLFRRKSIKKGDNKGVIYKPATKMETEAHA
- measurementProtocol: stopped-flow CO2 hydrase assay, hCA XII
- Format: biochemical
pKi: −log10 of the molar value.
Reported pKi is given for each of the following compounds.
observationType: pKi

NS(=O)(=O)c1ccc(-c2cnc(C(=O)N3CCNCC3)o2)s1	8.41
NCCNC(=O)c1ncc(-c2ccc(S(N)(=O)=O)s2)o1	8.03
NS(=O)(=O)c1ccc(-c2cnc(C(=O)NC3CCNCC3)o2)s1	8.05
NC1CCN(C(=O)c2ncc(-c3ccc(S(N)(=O)=O)s3)o2)CC1	8.24
